Just for reference, ChEMBL document CHEMBL3779809 is where these values come from.

Experiment: Cytotoxicity against human SMMC7721 cells assessed as cell viability after 48 hrs by MTS assay
Format: functional, cell-based
Settings: SMMC-7721, 48 h
Known IC50 of a selection of molecules

Reference set, count: 2
>>> result("C=C1[C@H]2CC[C@@H]3[C@](C2)(C(=O)O[C@H]2C[C@@H]4OC5O[C@@H](O)[C@H](C4(C)C)[C@@]523)[C@@H]1O")
"> 40 µM"
>>> result("C=C1C(=O)[C@]23C[C@@H]1C[C@@H](O)[C@H]2C12C(O)O[C@@H]4OC(O)[C@](C)(CC[C@@H]1OC3=O)[C@@H]42 (stereo partly drawn)")
"> 40 µM"

Qu. Can you share its IC50? I mean this molecule: C=C1C(=O)[C@]23C[C@@H]1CC[C@H]2C12[C@@H](OC)O[C@@H](O)[C@@H]1C(C)(C)CC[C@@H]2OC3=O (stereo partly drawn)
Ans. 4.7 µM

###

System: SW480
Assay: Cytotoxicity against human SW480 cells assessed as cell viability after 48 hrs by MTS assay
Assay type: functional, cell-based
Conditions: SW480, 48 h
pIC50: −log10 of the molar value.
Parameter: pIC50

>>> result("CO[C@H]1O[C@@H](O)[C@@H]2C(C)(C)CC[C@@H]3OC(=O)[C@@]45C[C@H](CC[C@H]4C132)[C@@H](C)C5=O (some centres undefined)")
"< 4.40"
>>> result("C=C1C(=O)[C@]23C[C@@H]1CC[C@H]2C12C(O)O[C@@H](OC)[C@@H]1C(C)(C)CC[C@@H]2OC3=O (some centres undefined)")
5.49
>>> result("CO[C@@H]1OC(O)C23[C@H](CCC(C)(C)[C@@H]12)OC(=O)[C@@]12C[C@H](CC[C@@H]31)[C@@H](C)C2=O (some centres undefined)")
"< 4.40"
>>> result("C[C@H]1C(=O)[C@]23C[C@@H]1CC[C@H]2C12[C@H](O)OC[C@@H]1C(C)(C)CC[C@@H]2OC3=O (some centres undefined)")
"< 4.40"
>>> result("C=C1[C@H]2CC[C@H]3C45C(O)O[C@@H](OC)[C@@H]4C(C)(C)CC[C@@H]5OC(=O)[C@]3(C2)[C@@H]1O (some centres undefined)")
"< 4.40"
>>> result("C[C@@H]1C(=O)[C@]23C[C@@H]1CC[C@H]2C12CO[C@@H](O)[C@@H]1C(C)(C)CC[C@@H]2OC3=O (some centres undefined)")
"< 4.40"
>>> result("C=C1C(=O)[C@]23C[C@@H]1CC[C@H]2[C@@]12CO[C@@H](O)[C@@H]1C(C)(C)CC[C@@H]2OC3=O")
5.77
>>> result("C[C@H]1C(=O)[C@]23C[C@@H]1CC[C@H]2C12CO[C@@H](O)[C@@H]1C(C)(C)CC[C@@H]2OC3=O (some centres undefined)")
"< 4.40"
>>> result("C[C@]12CC[C@@H]3OC(=O)[C@@]45C[C@H](C[C@@H](O)[C@@H]4[C@]34CO[C@H](OC1)[C@H]24)[C@@]1(CCC2=C(O1)[C@]13C[C@@H]2C[C@@H](O)[C@@H]1[C@]12CO[C@@H]4OC[C@](C)(CC[C@@H]1OC3=O)[C@@H]42)C5=O")
"< 4.40"
>>> result("C=C1C(=O)[C@]23C[C@@H]1C[C@@H](O)[C@H]2C12CO[C@@H](O)[C@@H]1C(C)(C)[C@@H](O)C[C@@H]2OC3=O (some centres undefined)")
"< 4.40"

Qu. Would you kindly share the measured pIC50 for COC[C@@H]1C(=O)[C@]23C[C@@H]1C[C@@H](O)[C@H]2C12CO[C@@H](O)[C@@H]1C(C)(C)CC[C@@H]2OC3=O (some centres undefined) ?
Ans. < 4.40

Qu. Any idea what pIC50 was measured for C[C@H]1C(=O)[C@]23C[C@@H]1CC[C@H]2C12[C@H](CCC(C)(C)[C@H]1CO[C@@H]2O)OC3=O (some centres undefined) ?
Ans. < 4.40

Qu. Give the measured pIC50 of C=C1C(=O)[C@]23C[C@@H]1C[C@@H](O)[C@H]2[C@@]12CO[C@@H](O)[C@@H]1C(C)(C)CC[C@@H]2OC3=O .
Ans. 4.96

Qu. Using the record for COC[C@H]1C(=O)[C@]23C[C@@H]1C[C@@H](O)[C@H]2C12CO[C@@H](O)[C@@H]1C(C)(C)CC[C@@H]2OC3=O (some centres undefined) , report its pIC50.
Ans. < 4.40

Qu. Return reported pIC50; argument: C=C1[C@H]2CC[C@@H]3[C@](C2)(C(=O)O[C@H]2C[C@@H]4OC5O[C@@H](O)[C@H](C4(C)C)[C@@]523)[C@@H]1O
Ans. < 4.40

Qu. Given the entry C=C1C(=O)[C@]23C[C@@H]1C[C@@H](O)[C@H]2C12CO[C@@H]4OC[C@](C)(CC[C@@H]1OC3=O)[C@@H]42 (some centres undefined) , report its measured pIC50.
Ans. < 4.40

Qu. Recorded pIC50 for CC1(C)[C@@H]2C[C@@H]3OC(=O)[C@@]45C[C@H](CC[C@H]4[C@]34C(O[C@@H](O)[C@H]14)O2)[C@](C)(O)C5=O , please?
Ans. < 4.40

Qu. pIC50 lookup needed for C=C1[C@H]2C[C@@H](O)[C@H]3C45CO[C@@H]6OC[C@](C)(CC[C@@H]4OC(=O)[C@]3(C2)[C@@H]1O)[C@@H]65 (some centres undefined) , thanks.
Ans. < 4.40

Qu. Item C[C@H]1C(=O)[C@]23C[C@@H]1CC[C@H]2C12C(O)O[C@@H](O)[C@@H]1C(C)(C)CC[C@@H]2OC3=O (some centres undefined) has what recorded pIC50?
Ans. < 4.40
